Tested on: P. falciparum 3D7 parasites
Assay: Effects of indole derivatives (500 nM) on parasitemia
Assay type: cell-based, Plasmodium falciparum
Details: Plasmodium falciparum; 3D7, 48 h, normalized to DMSO control; read-out: Parasitemia (%) Treatment with compound (500nM)
measured-metric: activity at 0.5 µM (%)
Response body: numeric value in %, unit text excluded.

>>> value_observed("CCCCCCCCCCCCSc1[nH]c2cc(Cl)ccc2c1CC(=O)OC [Compound 21]")
104

Prompt line: Could you please provide reported activity at 0.5 µM for COC(=O)Cc1c(Sc2cccc(O)c2)[nH]c2ccccc12 [Compound 7] ? Thanks!
Response line: 96.5

Prompt line: Provide activity at 0.5 µM value for the following compound: COC(=O)Cc1c(Sc2ncccn2)[nH]c2ccccc12 [Compound 10]
Response line: 101

Prompt line: Quote activity at 0.5 µM reported for COC(=O)Cc1c(Sc2ccccc2)[nH]c2ccc(OC)cc12 [Compound 25] please.
Response line: 107

Prompt line: Tell us which activity at 0.5 µM value is on record for COC(=O)Cc1c(SC(C)(C)C)[nH]c2ccccc12 [Compound 16]
Response line: 112

Prompt line: Identify measured activity at 0.5 µM associated with CCSc1[nH]c2ccccc2c1CC(=O)OC [Compound 17]
Response line: 98.6

Prompt line: For the compound c1ccc(Cc2c(Sc3ccccc3)[nH]c3ccccc23)cc1 [Compound 26] , report activity at 0.5 µM.
Response line: 92.7

Prompt line: Return reported activity at 0.5 µM. Input compound: COC(=O)Cc1c(SC23CC4CC(CC(C4)C2)C3)[nH]c2ccccc12 [Compound 18]
Response line: 98

Prompt line: Using the record for COC(=O)Cc1c(SCc2ccccc2)[nH]c2ccccc12 [Compound 14] , state its measured activity at 0.5 µM.
Response line: 97.8

Prompt line: Give the value of activity at 0.5 µM reported for the following: COC(=O)Cc1c(Sc2ccccc2C(=O)O)[nH]c2ccccc12 [Compound 8]
Response line: 102
